The entries below are paired with their reported pIC50.
biological target: GST-tagged recombinant human TYRO3 kinase domain (Homo sapiens (Human), UniProt Q06418); test: TYRO3 Enzyme Assay (LanthaScreen Eu Kinase Binding, TR-FRET); conditions: averaged IC50
Sequence (Q06418 518-790): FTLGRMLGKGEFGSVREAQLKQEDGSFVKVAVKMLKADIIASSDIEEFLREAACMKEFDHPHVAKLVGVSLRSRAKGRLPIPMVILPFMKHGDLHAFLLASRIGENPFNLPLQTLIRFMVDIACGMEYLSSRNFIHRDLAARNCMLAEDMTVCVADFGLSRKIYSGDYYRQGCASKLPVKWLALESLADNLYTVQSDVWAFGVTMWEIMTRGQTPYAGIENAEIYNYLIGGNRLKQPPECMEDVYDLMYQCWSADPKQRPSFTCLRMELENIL
pIC50: −log10 of the molar value.

>  <COMPOUND>
CCNc1cc2c(cn1)c(-c1cnn(C)c1)nn2[C@H]1CC[C@@H](Oc2nccnc2C(F)(F)F)CC1 [Example 194]

>  <ASSAY SYSTEM>
GST-tagged recombinant human TYRO3 kinase domain (Homo sapiens (Human), UniProt Q06418)

>  <pIC50>
> 8.00

$$$$

Qu. Which value of pIC50 has been reported for CCNc1cc2c(cn1)c(C1CCN(C(C)C)CC1)nn2[C@H]1CC[C@@H](Oc2nccc(C(F)(F)F)c2F)CC1 [Example 326] in the records?
Ans. 7.00 to 8.00

Qu. Now the same for CNc1cc2c(cn1)c(-c1ccc3c(c1)CN(C)C3=O)nn2[C@H]1CC[C@@H](Oc2cn(C)nc2C(F)(F)F)CC1 [Example 286]
Ans. > 8.00

Qu. Now the same for CNc1cc2c(cn1)c(-c1cnn(C(C)(C)C#N)c1)nn2[C@H]1CC[C@@H](Oc2nccnc2C)CC1 [Example 212]
Ans. 7.00 to 8.00

Qu. Now the same for CNc1cc2c(cn1)c(N1CCNCC1)nn2[C@H]1CC[C@@H](Oc2nccc(C(F)(F)F)c2F)CC1 [Example 495]
Ans. > 8.00

Qu. Now the same for CCNc1cc2c(cn1)c(-c1cnn(C(CO)CO)c1)nn2[C@H]1CC[C@@H](Oc2cccc(F)c2F)CC1 [Example 415]
Ans. > 8.00

Qu. Now the same for CCNc1cc2c(cn1)c(-c1cnn(C[C@@H](O)CO)c1)nn2[C@H]1CC[C@@H](Oc2ccc(F)cc2Cl)CC1 [Example 436]
Ans. 7.00 to 8.00

###

molecular target: GST-tagged recombinant human TYRO3 kinase domain (Homo sapiens (Human), UniProt Q06418); assay: TYRO3 Enzyme Assay (LanthaScreen Eu Kinase Binding, TR-FRET); details: averaged IC50
Structures can show the parent of a compound that is named as a salt.
PARAMETER: IC50

Qu. Which value of IC50 has been reported for CNc1cc2c(cn1)c(-c1cnn(C[C@H](O)CO)c1)nn2[C@H]1CC[C@@H](Oc2cccnc2C(F)(F)F)CC1 [Example 204, hydrochloride] in the records?
Ans. < 10 nM

Qu. Now the same for CNc1cc2c(cn1)c(-c1ccn(C)n1)cn2[C@H]1CC[C@@H](Oc2ccc(=O)n(C)n2)CC1 [Example 74]
Ans. 1000 to 10000 nM

Qu. Now the same for CNc1cc2c(cn1)c(-c1cnn(C)c1)nn2[C@H]1CC[C@@H](Oc2ccc(OCc3ccccc3)nc2)CC1 [Example 131]
Ans. 1000 to 10000 nM

Qu. Now the same for CNc1cc2c(cn1)c(-c1cnn(C)c1)nn2[C@@H]1CC[C@H](Oc2ccccc2)[C@@H](O)C1 (racemic) [Example 470]
Ans. 10 to 100 nM

Qu. Now the same for CCNc1cc2c(cn1)c(N1CCC(NC)CC1)nn2[C@H]1CC[C@@H](Oc2nccc(C(F)(F)F)c2F)CC1 [Example 344]
Ans. 10 to 100 nM

Qu. Now the same for CCNc1cc2c(cn1)c(N1CCC(N(C)C)CC1)nn2[C@H]1CC[C@@H](Oc2nccc(C(F)(F)F)c2F)CC1 [Example 345]
Ans. 10 to 100 nM

Qu. Now the same for CCNc1cc2c(cn1)c(-c1cnn(CC(C)(O)CO)c1)nn2[C@H]1CC[C@@H](Oc2ccccc2F)CC1 (some centres unmarked) [Example 431]
Ans. 10 to 100 nM

Qu. Now the same for CCNc1cc2c(cn1)c(-c1cnn(C[C@H](O)[C@H](C)O)c1)nn2[C@H]1CC[C@@H](Oc2nccc(C(F)(F)F)c2F)CC1 [Example 239]
Ans. < 10 nM

Qu. Now the same for CCn1c(O[C@H]2CC[C@@H](n3nc(-c4cnn(C)c4)c4cnc(NC)cc43)CC2)cccc1=O [Example 111]
Ans. 10 to 100 nM

Qu. Now the same for CCNc1cc2c(cn1)c(-c1cnn(C)c1)nn2[C@H]1CC[C@@H](Oc2cccnc2C(F)(F)F)CC1 [Example 184]
Ans. < 10 nM

Qu. Now the same for CNc1cc2c(cn1)c(-c1cnn(C3CCN(C)CC3)c1)nn2[C@H]1CC[C@@H](Oc2nccnc2C)CC1 [Example 214]
Ans. 10 to 100 nM

Qu. Now the same for CCNc1cc2c(cn1)c(N1CC[C@H](N(C)C)C1)nn2[C@H]1CC[C@@H](Oc2nccc(C(F)(F)F)c2F)CC1 [Example 335]
Ans. 10 to 100 nM

Qu. Now the same for CNc1cc2c(cn1)c(-c1cnn(C)c1)nn2[C@H]1CC[C@H](Oc2ccnc(C)c2)CC1 [Example 121]
Ans. 1000 to 10000 nM

Qu. Now the same for CNc1cc2c(cn1)c(-c1cnn(C)c1)nn2[C@H]1CC[C@@H](Oc2ccccc2S(C)(=O)=O)CC1 [Example 375]
Ans. 10 to 100 nM

Data origin: patent US11247990B1
